Provide the recorded total protein half-life in vivo for the entries that follow.
assay: total protein half-life in vivo (active degradation + dilution); higher = more stable protein; details: E. coli NCM3722 delta-clpP; growth: N-lim chemostat; doubling time 6 h
Numbers only, in h.

Recorded total protein half-life in vivo, per entry:
Chain	total protein half-life in vivo / h
MNKHTEHDTREHLLATGEQLCLQRGFTGMGLSELLKTAEVPKGSFYHYFRSKEAFGVAMLERHYAAYHQRLTELLQSGEGNYRDRILAYYQQTLNQFCQHGTISGCLTVKLSAEVCDLSEDMRSAMDKGARGVIALLSQALENGRENHCLTFCGEPLQQAQVLYALWLGANLQAKISRSFEPLENALAHVKNIIATPAV	4.66
MSQNLDATAINQIHALISAQGVNEIISKIGADAVALPENFRIHDLEKFNLNRFRFRGALSTASIDDFTRYSKDLADEGTRCFIDADNMRAVSVLNLGTIDEPGHADNTATLKLKKTAPFSALLSVNGERNSQKSLAEWIEDWADYLVGFDANGDAIQATKAAAAIRKITIEANQTADFEDNDFSGKRSLMESVEAKTKDIMPVAFEFKCVPFEGLKERPFKLRLSIITGDRPVLVLRIIQLEAVQEDMANEFRDLLVEKFKDSKVETFIGTFTA	3.16

# lookup: total protein half-life in vivo of "MPGLKITLLQQPLVWMDGPANLRHFDRQLEGITGRDVIVLPEMFTSGFAMEAAASSLAQDDVVNWMTAKAQQCNALIAGSVALQTESGSVNRFLLVEPGGTVHFYDKRHLFRMADEHLHYKAGNARVIVEWRGWRILPLVCYDLRFPVWSRNLNDYDLALYVANWPAPRSLHWQALLTARAIENQAYVAGCNRVGSDGNGCHYRGDSRVINPQGEIIATADAHQATRIDAELSMAALREYREKFPAWQDADEFRLW"
4.04
